Origin of values: patent US10787444B2

Biological target: c-Myc/Max/Ebox DNA (Homo sapiens)
Construct: his6 (cleaved yes)
Sequence (P01106 whole entry): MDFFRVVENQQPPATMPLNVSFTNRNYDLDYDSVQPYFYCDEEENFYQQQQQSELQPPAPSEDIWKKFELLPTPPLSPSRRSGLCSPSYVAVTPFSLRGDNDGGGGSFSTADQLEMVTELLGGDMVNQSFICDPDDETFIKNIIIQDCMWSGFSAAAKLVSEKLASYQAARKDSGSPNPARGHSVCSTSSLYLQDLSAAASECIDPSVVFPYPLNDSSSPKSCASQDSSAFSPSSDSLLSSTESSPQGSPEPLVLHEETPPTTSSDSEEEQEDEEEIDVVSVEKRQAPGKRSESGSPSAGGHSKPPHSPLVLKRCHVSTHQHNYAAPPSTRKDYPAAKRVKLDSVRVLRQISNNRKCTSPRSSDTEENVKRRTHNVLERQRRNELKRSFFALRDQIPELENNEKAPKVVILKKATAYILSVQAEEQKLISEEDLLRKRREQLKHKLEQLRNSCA
Assay: c-Myc/Max/Ebox DNA AlphaScreen Assay
Format: binding
Conditions: Table 2, compounds of FIG. 1; calculated IC50 class
ASSAY_METRIC: IC50

Q) Fill in the recorded IC50 for this compound, with c-Myc/Max/Ebox DNA (Homo sapiens) as test system: CC[C@H](C)NCCC(=O)Nc1sc2c(c1-c1nc3cc(-c4ccncc4)ccc3s1)CCNC2
A) < 300 nM

Q) Fill in the recorded IC50 for this compound, with c-Myc/Max/Ebox DNA (Homo sapiens) as test system: COCCNCCC(=O)Nc1sc2c(c1-c1nc3cc(F)ccc3s1)CC(C)NC2C (single isomer, unassigned) [Compound 547]
A) 1000 to 10000 nM

Q) Fill in the recorded IC50 for this compound, with c-Myc/Max/Ebox DNA (Homo sapiens) as test system: CCC(C)NCCC(=O)Nc1sc2c(c1-c1nc3cc4c(cc3s1)OCO4)CCN(C(C)C)C2 (stereo not shown)
A) < 300 nM

Q) Fill in the recorded IC50 for this compound, with c-Myc/Max/Ebox DNA (Homo sapiens) as test system: CCC(C)NCCC(=O)Nc1sc2c(c1-c1nc3cc(F)ccc3s1)CCNC2 (stereo not shown)
A) < 300 nM
